IC50 reference
System: Abeta 1-42 produced and secreted by human neuroblastoma SKNBE2 cells expressing hAPP695
Experiment: Cellular αLisa assay in SKNBE2 cells, Abeta 1-42
Type: cell-based
Conditions: Homo sapiens, SKNBE2, 18 h, 18 hours incubation, read-out: Cellular αLisa assay in SKNBE2 cells Abeta 42 pIC50 (converted)
Method: Cellular αLisa Assay in Sknbe2 Cells In two αLisa assays the levels of Abeta total and Abeta 1-42 produced and secreted into the medium of human neuroblastoma SKNBE2 cells are quantified. […] Abeta total and Abeta 1-42 are measured by sandwich αLisa. αLisa is a sandwich assay using biotinylated antibody AbN/25 attached to streptavidin coated beads and antibody Ab4G8 or cAb42/26 conjugated acceptor beads for the detection of Abeta total and Abeta 1-42 respectively. […]
# output: bare number, implied unit nM

Record excerpt, results attached:
| compound | IC50 (nM) |
| --- | --- |
| COc1ncc(C(=O)N2CCOCC2)c2c1C[C@]1(c3ccc(F)cc3F)N=C(N)SC[C@@H]1C2 | 47.9 |
| COc1ncc(C(=O)N2CCOCC2)c2c1CC1(c3ccc(F)cc3F)N=C(N)SCC1C2 (centres unmarked) | 46.8 |
| COc1ncc(C(=O)Nc2cccnc2)c2c1C[C@]1(c3ccc(F)cc3F)N=C(N)SC[C@@H]1C2 | 56.2 |
| COc1ncc(C(=O)N2CCC(c3ccncc3)C2)c2c1C[C@]1(c3ccc(F)cc3F)N=C(N)SC[C@@H]1C2 (some centres unmarked) | 28.8 |

Read the next record carefully.
Entry COc1ncc(C(=O)NC2CC2)c2c1C[C@]1(c3ccc(F)cc3F)N=C(N)SC[C@@H]1C2 [Compound 1a] ; IC50 = 19.1
